// cross-source set; read-out = IC50; system = Fibroblast growth factor receptor 3 (Homo sapiens, UniProt P22607)

compound	readout.value
NC(=O)c1c(-c2c(Cl)cccc2Cl)nc2c3cc(-c4ccc(CN5CCN(C(=O)CO)CC5)cc4)cnc3ccn12	0.0001 to 0.001 µM

Quick one: IC50 of "CNC(=O)c1cc(F)c(F)c(-c2cnc3cc(-c4cnn(C5CCN(S(=O)(=O)N(C)C)CC5)c4)c(O[C@H]4CCOC4)nn23)c1" ?
< 0.01 µM

What do we get for "CCOC(=O)c1c(C)[nH]c(/C=C2\C(=O)Nc3cccc(-c4cccc(F)c4)c32)c1CCCN1CCN(C)CC1" ?
0.35 µM

What do we get for "CNC(=O)c1cc(F)c(F)c(-c2cnc3cc(-c4cnn(C5CCC5)c4)c(O[C@H]4CCOC4)nn23)c1" ?
< 0.01 µM

What do we get for "COc1cc(OC)c(F)c(N2Cc3cnc(N)c(OCCN4CCN(C)CC4)c3N(C)C2=O)c1F" ?
< 0.1 µM

What do we get for "CCN1CCN(c2ccc(Nc3ncc(/C=C/c4cc(OC)cc(C(=O)NOC)c4)cn3)cc2)CC1" ?
0.016 µM

What do we get for "COc1nn2c(-c3cccc(N4CCOCC4)c3)cnc2cc1-c1cnn(C)c1" ?
0.1 to 0.4 µM

What do we get for "C=CC(=O)NCc1cc2c(cn1)CN(c1c(F)c(OC)cc(OC)c1F)C(=O)N2CCF" ?
> 0.2 µM

What do we get for "Cc1nc2cc(-n3ncc(C(=O)c4cc5cc6c(cc5[nH]4)OCO6)c3N)ccc2[nH]1" ?
≤ 0.3 µM

What do we get for "CCn1cc(Nc2ncc(CCc3cc(C(=O)NC)cc(OC)c3Cl)cn2)cn1" ?
0.011 µM

What do we get for "CCN(C(=O)Nc1cc(NC(C)C)c(C#N)cn1)c1ccc(-c2cnn(C)c2)c(C=O)n1" ?
> 10 µM

What do we get for "COc1cc(OC)c(F)c(N2Cc3cnc(Nc4cccnc4)cc3C3(CC3)C2=O)c1F" ?
< 0.1 µM

What do we get for CC(C(=O)N1CC(O)C1)n1cc(-c2cnn3c(-c4cccc(NC(=O)NCC(F)(F)F)c4)cnc3c2)cn1 (stereo not drawn) ?
< 0.01 µM

What do we get for CC(C(=O)NCc1nccn1C)c1ccc(-c2ccc3c(c2)ncn3-c2cccc(NC(=O)NCC(F)(F)F)c2)cc1 (stereo not drawn) ?
< 0.01 µM

What do we get for "CC(=O)N1CCN(Cc2ccc(-c3cnc4ccn5c(C(N)=O)c(-c6c(Cl)cccc6Cl)nc5c4c3)cc2)CC1" ?
< 0.0001 µM

What do we get for "CCN1CCN(c2ccc(Nc3ncc(CCc4cc(C(=O)NOC)cc5occc45)cn3)cc2)CC1" ?
0.047 µM

What do we get for NC(=O)c1c(-c2c(Cl)cccc2Cl)nc2c3cc(C4=CCC(O)CC4)cnc3ccn12 (stereo not drawn) ?
< 0.0001 µM

What do we get for "CNC(=O)c1cc(C)c(F)c(-c2cnn3cc(-c4cnc(C5(F)CCN(C)CC5)o4)c(N[C@H]4CCOC4)nc23)c1" ?
< 0.01 µM

What do we get for "COCC(=O)N1CCC(n2cc(-c3cnn4c(-c5cccc(NC(=O)NCC(F)(F)F)c5)cnc4c3)cn2)CC1" ?
< 0.01 µM

What do we get for "CC(C)[C@H]1O[C@@H](c2ccncc2NC(=O)c2nc(-c3ccccc3)cnc2N)C[C@@H](N)[C@@H]1O" ?
0.22 µM
